Data origin: patent US12606544B2

Test system: phosphorylation of STAT6
MEASUREMENT NOTES: Cellular p-STAT6 assay, IL-13 stimulated THP-1 cells, flow cytometry
Assay type: cell-based
SETTINGS: Homo sapiens, THP-1, THP-1 cells, IL-13 10 ng/ml; read-out: pSTAT6 IC50
Listed molecules paired with reported IC50
Express your answer as a number followed by its unit.

COC[C@H](C(=O)Nc1cccc2c(-c3nc(Nc4ccc(-c5ncco5)nc4)ncc3F)c[nH]c12)N1CCN(C)CC1	8.5 nM
COC[C@H](C(=O)Nc1cccc2c(-c3nc(Nc4cnn(-c5ccccc5CO)c4)ncc3F)c[nH]c12)N1CCN(C)CC1	15 nM
COCCOc1ccc(Nc2ncc(F)c(-c3c[nH]c4c(NC(=O)[C@@H](COC)N5CCN(C)CC5)cccc34)n2)cn1	18.8 nM

Lookup: // lookup IC50 | system=phosphorylation of STAT6 | key= COC[C@H](C(=O)Nc1cccc2c(-c3nc(Nc4cnc(CO)c(OC)c4)ncc3F)c[nH]c12)N1CCN(C)CC1
Found: 11.3 nM

Lookup: Now the molecule COC[C@H](C(=O)Nc1cccc2c(-c3nc(Nc4ccc(C(=O)OC)nc4)ncc3F)c[nH]c12)N1CCN(C)CC1
Found: 7.2 nM

Lookup: Now the molecule COC[C@H](C(=O)Nc1cccc2c(-c3nc(Nc4cnn(C5CCOCC5)c4)ncc3F)c[nH]c12)N1CCN(C)CC1
Found: 7.6 nM

Lookup: Now the molecule COC[C@H](C(=O)Nc1cccc2c(-c3nc(Nc4ccc5c(CO)ncn5c4)ncc3F)c[nH]c12)N1CCN(C)CC1
Found: 13.5 nM
